Values were extracted from the Human Domainome abundance scans (Beltran et al. 2025).

Can you tell me abundance fitness for the items I'm about to list?
B1: Neutrophil cytosol factor 2, residues 456 to 514; numbered along this chain, P19878 (parent)
chain: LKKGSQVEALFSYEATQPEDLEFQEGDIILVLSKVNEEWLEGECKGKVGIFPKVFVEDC

- Variants of: B1
- PROTOCOL: abundance fitness (aPCA) (normalised: wild type 0, dead -1); higher = more abundant; growth selection in yeast, the domain comes from the species named
- MEASUREMENT_CONTEXT: Homo sapiens

Enquiry: Report measured abundance fitness; entry is `D27W`
Return: -0.674

Enquiry: Report measured abundance fitness; entry is `T16M`
Return: -0.164

Enquiry: Report measured abundance fitness; entry is `F55P`
Return: -0.145

Enquiry: Report measured abundance fitness; entry is `Y13A`
Return: -0.505

Enquiry: Report measured abundance fitness; entry is `D58L`
Return: -0.493

Enquiry: Report measured abundance fitness; entry is `V35G`
Return: -0.613

Enquiry: Report measured abundance fitness; entry is `D20I`
Return: -0.375

Enquiry: Report measured abundance fitness; entry is `E37V`
Return: 0.085

Enquiry: Report measured abundance fitness; entry is `K53M`
Return: -0.549

Enquiry: Report measured abundance fitness; entry is `Q24L`
Return: -0.535

Enquiry: Report measured abundance fitness; entry is `I50A`
Return: -0.213

Enquiry: Report measured abundance fitness; entry is `D20Q`
Return: 0.093

Enquiry: Report measured abundance fitness; entry is `L30A`
Return: -0.284

Enquiry: Report measured abundance fitness; entry is `G4P`
Return: -0.208

Enquiry: Report measured abundance fitness; entry is `F55V`
Return: 0.271

Enquiry: Report measured abundance fitness; entry is `D58P`
Return: 0.214

Enquiry: Report measured abundance fitness; entry is `G49N`
Return: -0.735

Enquiry: Report measured abundance fitness; entry is `D20G`
Return: -0.125

Enquiry: Report measured abundance fitness; entry is `L30F`
Return: -0.147

Enquiry: Report measured abundance fitness; entry is `E14F`
Return: -0.236

Enquiry: Report measured abundance fitness; entry is `E22R`
Return: -0.368

Enquiry: Report measured abundance fitness; entry is `D58S`
Return: 0.022

Enquiry: Report measured abundance fitness; entry is `V7R`
Return: -0.343

Enquiry: Report measured abundance fitness; entry is `Y13D`
Return: -0.646

Enquiry: Report measured abundance fitness; entry is `I50S`
Return: -0.448

Enquiry: Report measured abundance fitness; entry is `I28V`
Return: -0.264

Enquiry: Report measured abundance fitness; entry is `N36G`
Return: -0.103

Enquiry: Report measured abundance fitness; entry is `K53P`
Return: -0.716

Enquiry: Report measured abundance fitness; entry is `I28Y`
Return: -0.546

Enquiry: Report measured abundance fitness; entry is `K34A`
Return: -0.359

Enquiry: Report measured abundance fitness; entry is `V54A`
Return: 0.431

Enquiry: Report measured abundance fitness; entry is `E19M`
Return: -0.463
